target: SfurOBP11 (Sogatella furcifera); experiment: biochemical; format: binding; settings: ligand concentration 6, replicate 1
measured_endpoint: Fluorescence intensity, fluorescence competitive binding assay, OBP11
Response field accepts a number only; no unit should be typed.

Sample records with Fluorescence intensity, fluorescence competitive binding assay, OBP11:
C=CC(C)(O)CCC=C(C)CCC=C(C)C (mixture of isomers) | 25372
C/C(=C\CO)CCC[C@H](C)CCC[C@H](C)CCCC(C)C | 16356
CCCCCC=O | 29000
CC1=CC[C@@H](C(C)(C)O)CC1 | 28105
CC(=O)c1ccccc1 | 26264

Kindly consider the entry below.
Give SfurOBP11 (Sogatella furcifera) Fluorescence intensity, fluorescence competitive binding assay, OBP11 for the following molecule: Cc1cc(C(C)(C)C)c(O)c(C(C)(C)C)c1
20464

----------
target: SfurOBP2 (Sogatella furcifera, UniProt V5T759); experiment: biochemical; type: binding; settings: ligand concentration 4 (unit not given), replicate column 3 of 3
Sequence (V5T759 entry or part of it): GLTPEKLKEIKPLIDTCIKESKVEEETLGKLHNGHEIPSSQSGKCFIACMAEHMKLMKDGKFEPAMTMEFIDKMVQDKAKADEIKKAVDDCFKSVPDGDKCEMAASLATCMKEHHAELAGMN
Mark satisfied for reported Fluorescence competitive binding assay, OBP2 (raw fluorescence reading) of 20000 or greater; mark not satisfied for anything smaller.

Recorded results for 3 compounds are shown here.
CCCCCCC=CCO | satisfied
C=C(C)C1CC=C(C)CC1 (single isomer, unassigned; (+)) [(+)-limonene] | not satisfied
CCCCCCCCCCCCCCCCCC | satisfied

Decide: Fluorescence competitive binding assay, OBP2 (raw fluorescence reading) of O=Cc1ccccc1 >= 20000?
not satisfied

Decide: Fluorescence competitive binding assay, OBP2 (raw fluorescence reading) of CCCCCCCCCCCCCCCCCCC >= 20000?
satisfied

Decide: Fluorescence competitive binding assay, OBP2 (raw fluorescence reading) of C=C1CC/C=C(\C)CC[C@@H]2[C@@H]1CC2(C)C >= 20000?
not satisfied

----------
Target: SfurOBP11 (Sogatella furcifera, UniProt V5T6E3)
Sequence (V5T6E3 entry or part of it): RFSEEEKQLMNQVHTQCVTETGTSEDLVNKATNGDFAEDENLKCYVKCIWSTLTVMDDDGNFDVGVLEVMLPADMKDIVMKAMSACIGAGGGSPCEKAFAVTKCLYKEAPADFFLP
Experiment: biochemical
Type: binding
Details: ligand concentration 14, replicate 1
Protocol: Thirty-six rice odorants ([He et al., 2014]; [Wang et al., 2017]) and 1-N-phenyl-naphthylamine (1-NPN) were purchased from Sigma-Aldrich (St Louis, MO, USA). […] Fluorescence competitive binding assays were performed on Tecan Spark 10M (Tecan Group Ltd., Männedorf, Switzerland) with the F96 Black ELIAS Plate (Sangon) ([Khuhro et al., 2017]; [Liu et al., 2017]). The solutions were excited at 337 nm and emission spectra were recorded between 390 and 490 nm. […]
Threshold check on Fluorescence intensity, fluorescence competitive binding assay, OBP11: strictly below 20000 is label 1; on or above 20000 is label 0.

CCCCCCCCCCCCCCCC(=O)OC [MH(methyl hexadecanoate)] | label 0
CC(=O)/C=C/C1=C(C)CCCC1(C)C [β-Ionone] | label 1
CCC/C=C/CO [(E)-2-hexenol] | label 0
Cc1cc(C(C)(C)C)c(O)c(C(C)(C)C)c1 [BHT(2,6-di-tert-butyl-4-methylphenol)] | label 1

Could you please tell me whether Fluorescence intensity, fluorescence competitive binding assay, OBP11 recorded for O=C(c1ccccc1)c1ccccc1 [benzophenone] is less than 20000?
label 1

Could you please tell me whether Fluorescence intensity, fluorescence competitive binding assay, OBP11 recorded for CCCCCCCCCCCCCC [n-tetradecane] is less than 20000?
label 0

Could you please tell me whether Fluorescence intensity, fluorescence competitive binding assay, OBP11 recorded for CCCCCCCC=O [octanal] is less than 20000?
label 0

Could you please tell me whether Fluorescence intensity, fluorescence competitive binding assay, OBP11 recorded for CCCCCCCCC=O [nonanal] is less than 20000?
label 0

Could you please tell me whether Fluorescence intensity, fluorescence competitive binding assay, OBP11 recorded for C/C(=C\CO)CCC[C@H](C)CCC[C@H](C)CCCC(C)C [plant alcohol] is less than 20000?
label 0

Could you please tell me whether Fluorescence intensity, fluorescence competitive binding assay, OBP11 recorded for CCCCCCCCCCOCCCCCCCCCC [didecyl ether] is less than 20000?
label 0

Could you please tell me whether Fluorescence intensity, fluorescence competitive binding assay, OBP11 recorded for CCCCCCCCCCC [n-hendecane] is less than 20000?
label 0

Could you please tell me whether Fluorescence intensity, fluorescence competitive binding assay, OBP11 recorded for CCCCCCC=CCO [2-nonen-1-ol] is less than 20000?
label 0
